# collection of IC50 values tested on Histone deacetylase 8 (Homo sapiens)
# Sequence (Q9BY41 whole entry): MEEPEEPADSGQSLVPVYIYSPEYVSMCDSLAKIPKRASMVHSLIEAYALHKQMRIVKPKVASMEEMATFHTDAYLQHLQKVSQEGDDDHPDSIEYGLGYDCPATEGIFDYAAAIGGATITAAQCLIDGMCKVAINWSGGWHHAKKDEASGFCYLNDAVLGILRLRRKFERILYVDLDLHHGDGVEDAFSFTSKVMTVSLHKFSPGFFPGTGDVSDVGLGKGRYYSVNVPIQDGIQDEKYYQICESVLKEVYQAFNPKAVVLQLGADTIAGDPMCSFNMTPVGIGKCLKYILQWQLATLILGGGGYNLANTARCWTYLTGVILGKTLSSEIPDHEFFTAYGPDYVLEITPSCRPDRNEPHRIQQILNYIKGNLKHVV
The response must be a number in nM with no trailing unit.

Short answer please: IC50, Histone deacetylase 8 (Homo sapiens), entry N[C@@H](Cc1ccc(O)cc1)C(=O)N1CC2(C[C@H]1C(=O)NCCCCCC(=O)NO)SCCS2
490

Please give the result for CC(C)(C)OC(=O)NCCCC[C@H](NC(=O)OC(C)(C)C)C(=O)N1CC2(C[C@H]1C(=O)NCCCCCC(=O)NO)SCCS2 too.
350

Likewise for CC(C)(C)OC(=O)N[C@@H](Cc1ccccc1)C(=O)N1CC2(C[C@H]1C(=O)NCCCCCC(=O)NO)SCCS2 ?
35

Attribution: ChEMBL document CHEMBL1833905
